molecular target: TPO (produced in insect cells, RSR Ltd) (Homo sapiens (Human), UniProt P07202); assay: TPO activity (IC50), luminol chemiluminescence assay; settings: PBS pH7.4, luminol 100 μM, H2O2 50 μM, chemiluminescence recorded after 15 minutes
Sequence (P07202 19-933): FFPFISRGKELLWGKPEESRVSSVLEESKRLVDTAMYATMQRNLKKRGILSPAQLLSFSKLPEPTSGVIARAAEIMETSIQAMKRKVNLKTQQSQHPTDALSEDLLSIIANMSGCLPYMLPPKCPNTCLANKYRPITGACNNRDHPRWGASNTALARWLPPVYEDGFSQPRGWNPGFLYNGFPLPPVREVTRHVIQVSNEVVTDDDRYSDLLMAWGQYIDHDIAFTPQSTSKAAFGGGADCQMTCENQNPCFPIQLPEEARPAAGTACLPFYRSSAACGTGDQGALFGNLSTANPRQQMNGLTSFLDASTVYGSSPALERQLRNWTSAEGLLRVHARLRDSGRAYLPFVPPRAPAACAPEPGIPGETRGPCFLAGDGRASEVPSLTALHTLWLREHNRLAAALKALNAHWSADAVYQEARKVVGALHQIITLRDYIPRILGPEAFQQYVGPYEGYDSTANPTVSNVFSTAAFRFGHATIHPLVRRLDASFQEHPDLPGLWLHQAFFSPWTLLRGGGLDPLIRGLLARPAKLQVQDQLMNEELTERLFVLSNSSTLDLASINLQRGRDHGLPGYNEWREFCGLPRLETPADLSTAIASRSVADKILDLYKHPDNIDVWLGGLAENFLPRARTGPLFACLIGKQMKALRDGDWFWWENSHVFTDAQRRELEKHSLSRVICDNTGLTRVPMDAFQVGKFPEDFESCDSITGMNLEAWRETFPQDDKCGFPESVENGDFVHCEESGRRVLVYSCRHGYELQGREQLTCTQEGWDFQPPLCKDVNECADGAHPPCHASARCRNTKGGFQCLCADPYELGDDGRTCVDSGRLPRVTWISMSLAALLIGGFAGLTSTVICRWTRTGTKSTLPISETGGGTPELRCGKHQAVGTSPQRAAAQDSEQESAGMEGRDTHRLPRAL
Provide the recorded pIC50 for the entries that follow.
# pIC50 is unitless: minus log10 of the molar concentration; print number only

query: Give reported pIC50 value for O=c1[nH]c(=S)n(Cc2ccccc2[C@@H]2C[C@H](C(F)(F)F)CCN2)c2nc[nH]c12 [Example 13b]
result: 6.37

query: Give reported pIC50 value for CN1CCNC(c2ccccc2Cn2c(=S)[nH]c(=O)c3[nH]ccc32)C1 (centres unmarked) [Example 9]
result: 5.90

query: Give reported pIC50 value for O=c1[nH]c(=S)n(Cc2ccc(Cl)cc2[C@H]2CCCN2)c2cc[nH]c12 (single isomer, unassigned) [Example 3b]
result: 6.15

query: Give reported pIC50 value for O=c1[nH]c(=S)n(Cc2cccnc2[C@H]2C[C@H](C(F)(F)F)CCN2)c2cc[nH]c12 (single isomer, unassigned) [Example 31b]
result: 5.54

query: Give reported pIC50 value for O=c1[nH]c(=S)n(Cc2ccccc2[C@H]2C[C@H](C(F)(F)F)CCN2)c2nc[nH]c12 (single isomer, unassigned) [Example 18a]
result: 6.14

query: Give reported pIC50 value for O=c1[nH]c(=S)n(Cc2ccccc2[C@H]2CC(F)(F)CCN2)c2cc[nH]c12 (single isomer, unassigned) [Example 12b]
result: 6.49

query: Give reported pIC50 value for O=c1[nH]c(=S)n(Cc2ccccc2[C@H]2C[C@H](C(F)(F)F)CCN2)c2cc[nH]c12 (stereo in doubt) [Example 17a]
result: 6.12

query: Give reported pIC50 value for O=c1[nH]c(=S)n(Cc2ccc(Cl)cc2[C@H]2CCCN2)c2cc[nH]c12 (single isomer, unassigned) [Example 3a]
result: 6.26

query: Give reported pIC50 value for O=c1[nH]c(=S)n(Cc2ccc(Cl)cc2[C@H]2COCCN2)c2cc[nH]c12 (single isomer, unassigned) [Example 4b]
result: 6.09

query: Give reported pIC50 value for O=c1[nH]c(=S)n(Cc2ccccc2[C@@H]2COCCN2)c2cc[nH]c12 [Example 8]
result: 6.03

query: Give reported pIC50 value for O=c1[nH]c(=S)n(Cc2ccc(Cl)cc2[C@H]2COCCN2)c2cc[nH]c12 (single isomer, unassigned) [Example 4a]
result: 6.43

query: Give reported pIC50 value for O=c1[nH]c(=S)n(Cc2ncccc2[C@H]2C[C@@H](C(F)(F)F)CCN2)c2cc[nH]c12 (racemic) [Example 21]
result: 6.27

query: Give reported pIC50 value for O=c1[nH]c(=S)n(Cc2ccc(Cl)cc2[C@H]2CCCCN2)c2cc[nH]c12 (single isomer, unassigned) [Example 2a]
result: 5.98

query: Give reported pIC50 value for O=c1[nH]c(=S)n(Cc2ccccc2C2CCNCC2)c2cc[nH]c12 [Example 30]
result: 6.23
